- targetEntity: Histone deacetylase 3 (Homo sapiens)
- assayNotes: inhibition of human HDAC3 enzymatic activity – biochemical, fluorescence, cherry-picked samples, counter-screen for JMJD2C/GASC1 demethylase inhibitor project, dose response (AID 485318);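 note: enzyme preincubated with compound before substrate and trypsin were added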
- experimentalParameters: recombinant HDAC3, fluorogenic peptide/trypsin coupled; series mostly up to 12 µM
Fewer than 10 of roughly 1,400 compounds were called active. These entries were drawn from the full list.
measuredProperty: outcome

[
  {
    "molecule": "CCc1ccc(NC(=O)CSc2nnc(CNC(=O)c3c(F)cccc3Cl)o2)cc1",
    "measuredProperty": "outcome",
    "measuredResult": "inactive"
  },
  {
    "molecule": "Cc1ccc2nc(-c3cccc(NS(C)(=O)=O)c3)cc(-c3ccccc3)c2c1",
    "measuredProperty": "outcome",
    "measuredResult": "inactive"
  },
  {
    "molecule": "CCC(C)(C)NC(=O)C(c1ccc(C)o1)N(Cc1cccs1)C(=O)Cn1nnc2ccccc21 (centres undefined)",
    "measuredProperty": "outcome",
    "measuredResult": "inactive"
  },
  {
    "molecule": "CCN(CC(=O)Nc1ccc2c(c1)OCCO2)C(=O)CC1CCCC1",
    "measuredProperty": "outcome",
    "measuredResult": "inactive"
  },
  {
    "molecule": "COc1ccc(-n2cc(C(=O)O)c3ccccc3c2=O)cc1",
    "measuredProperty": "outcome",
    "measuredResult": "inactive"
  },
  {
    "molecule": "CCC(=O)N1CCc2cc(Br)cc(S(=O)(=O)CC(=O)OC)c21",
    "measuredProperty": "outcome",
    "measuredResult": "inactive"
  },
  {
    "molecule": "COc1ccc(CCN=C(NS(=O)(=O)c2ccc(Cl)cc2)c2ccccc2)cc1",
    "measuredProperty": "outcome",
    "measuredResult": "inactive"
  },
  {
    "molecule": "COc1ccc(OC)c(Nc2nnc(C)c(=O)[nH]2)c1",
    "measuredProperty": "outcome",
    "measuredResult": "inactive"
  },
  {
    "molecule": "CC(=O)OC(C(=O)NCc1ccc2c(c1)OCO2)c1ccccc1Cl (centres undefined)",
    "measuredProperty": "outcome",
    "measuredResult": "inactive"
  }
]
